The reported numbers originate from PubChem BioAssay (NCATS).

- assay_overview: Quantitative High-Throughput drug screen in 47 multiple myeloma cell lines against the NCATS MIPE library collection: KMM1_JCRB cell viability assay (AID 1918960); further: nearly all actives have a fitted effect of over 30% in size
- details: KMM1 myeloma viability, CellTiter-Glo ATP luminescence, 48 h; series mostly up to 45.8 µM
Records with an inconclusive call do not appear. Activity calls are given as the source filed them. The call rests on the fitted dose curve; in most records, active means well fitted cell-killing curve with a large enough effect; inconclusive means small, poorly fitted or top-dose-only effect, or effect the other way; inactive means no such curve, though single readings can be large or run the other way.
Classes used: active, inactive

compound: CC(C)[C@H](CO)Nc1nc(Nc2cccc(Cl)c2)c2ncn(C(C)C)c2n1
discrete_label: inactive

compound: COc1cc2c(Nc3ccc(Cl)c(Cl)c3F)ncnc2cc1OCC1C[C@@H]2CN(C)C[C@H]2C1
discrete_label: active

compound: Cc1cncc2cccc(S(=O)(=O)N3CCCN(C(=O)CN)C[C@@H]3C)c12
discrete_label: inactive

compound: CCNC(=O)c1cc2c(-c3cc(OCCN4CCCC4)c(Cl)cc3Cl)nc(N)nc2s1
discrete_label: active

compound: CN1[C@H]2CC(OC(=O)[C@@H](CO)c3ccccc3)C[C@H]1[C@H]1O[C@H]12 (some centres undefined)
discrete_label: inactive

compound: OC[C@@H](O)[C@@H](O)[C@H](O)[C@@H](O)CO
discrete_label: inactive

compound: COc1cccc2c1C(=O)c1c(O)c3c(c(O)c1C2=O)C[C@@](O)(C(=O)CO)C[C@@H]3O[C@H]1C[C@H](N)[C@@H](O)[C@H](C)O1
discrete_label: active

compound: COC(=O)[C@@H]1[C@H]2C[C@@H]3c4[nH]c5ccccc5c4CCN3C[C@@H]2CC[C@@H]1O
discrete_label: inactive

compound: CCCCCCCN(CC)CCCC(O)c1ccc(NS(C)(=O)=O)cc1 (centres undefined)
discrete_label: active
